- Protocol text: The drug is tested on Z-007 corresponding to rat gut metagenome with ENA study accession number: PRJEB37062 and ENA sample accession number: ERS12561807 for biotransformation under anaerobic condition. The drug concentrations were measured over 9 timepoints collected between 0 and 24 hours of incubation by liquid-chromatography-coupled mass spectrometry (LC–MS); further: call rule not given here
- Recorded conditions: 2 µM
Quantity kind: Bacterial Biotransformation

These solved cases illustrate the format of a correct answer.
>>> value("CCCc1nc2c(C)cc(-c3nc4ccccc4n3C)cc2n1Cc1ccc(-c2ccccc2C(=O)O)cc1")
"Compound metabolized"
>>> value("O=C1[C@H](CC[C@H](O)c2ccc(F)cc2)[C@@H](c2ccc(O)cc2)N1c1ccc(F)cc1 [EZETIMIBE]")
"Compound NOT metabolized"
>>> value("CCOC(=O)[C@H](CCc1ccccc1)N[C@@H](C)C(=O)N1[C@H](C(=O)O)C[C@@H]2CCC[C@@H]21")
"Compound metabolized"
>>> value("CCOc1ccc(NC(C)=O)cc1 [PHENACETIN]")
"Compound NOT metabolized"
>>> value("NC(=O)N1c2ccccc2CC(=O)c2ccccc21 [OXCARBAZEPINE]")
"Compound NOT metabolized"

Any idea what its Bacterial Biotransformation is? The compound is "CN1CC(=O)N2[C@H](c3ccc4c(c3)OCO4)c3[nH]c4ccccc4c3C[C@@H]2C1=O" Compound NOT metabolized

Lookup CC[C@H](C)C(=O)O[C@H]1C[C@@H](C)C=C2C=C[C@H](C)[C@H](CC[C@@H]3C[C@@H](O)CC(=O)O3)[C@H]21 [LOVASTATIN] Compound NOT metabolized

Lookup Cc1ccc(-c2nc3ccc(C)cn3c2CC(=O)N(C)C)cc1 [ZOLPIDEM] Compound NOT metabolized

Lookup CC(C)NCC(O)c1ccc(NS(C)(=O)=O)cc1 (configuration not stated) [SOTALOL] Compound NOT metabolized

Lookup O=c1[nH]c2ccccc2n1C1CCN(CCCC(c2ccc(F)cc2)c2ccc(F)cc2)CC1 [PIMOZIDE] Compound metabolized

Lookup CCOC(=O)[C@H](CCc1ccccc1)N[C@@H](C)C(=O)N1[C@H](C(=O)O)C[C@H]2CCCC[C@@H]21 [TRANDOLAPRIL] Compound NOT metabolized

Lookup CCOC(=O)[C@H](CCc1ccccc1)N[C@H]1CCc2ccccc2N(CC(=O)O)C1=O [BENAZEPRIL] Compound metabolized
